src = patent US20260327242A1

List of pIC50 tested on UniProtKB P97321.
Sequence (P97321 26-761 limits assumed): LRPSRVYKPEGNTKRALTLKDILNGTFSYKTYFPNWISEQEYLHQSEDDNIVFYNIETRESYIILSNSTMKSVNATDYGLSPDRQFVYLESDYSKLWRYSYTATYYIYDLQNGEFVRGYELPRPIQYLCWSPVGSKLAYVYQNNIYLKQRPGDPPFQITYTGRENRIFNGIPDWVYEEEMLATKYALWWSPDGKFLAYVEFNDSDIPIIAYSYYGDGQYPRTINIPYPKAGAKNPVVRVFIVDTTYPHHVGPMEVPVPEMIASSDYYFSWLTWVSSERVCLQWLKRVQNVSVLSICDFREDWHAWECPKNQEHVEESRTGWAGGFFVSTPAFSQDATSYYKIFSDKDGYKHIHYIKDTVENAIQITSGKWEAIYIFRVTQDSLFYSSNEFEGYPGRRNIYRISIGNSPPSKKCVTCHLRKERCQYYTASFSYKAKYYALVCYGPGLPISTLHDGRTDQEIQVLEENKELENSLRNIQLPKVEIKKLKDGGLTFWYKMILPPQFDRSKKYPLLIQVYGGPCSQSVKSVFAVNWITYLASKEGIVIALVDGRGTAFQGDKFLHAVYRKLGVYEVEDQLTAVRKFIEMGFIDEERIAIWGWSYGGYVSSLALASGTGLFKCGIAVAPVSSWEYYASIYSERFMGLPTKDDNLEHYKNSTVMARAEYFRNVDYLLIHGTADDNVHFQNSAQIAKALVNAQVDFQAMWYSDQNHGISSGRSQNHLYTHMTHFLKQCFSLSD
# log scale: pIC50 equals minus log10 of the concentration in mol/L

Prompt: May I ask what pIC50 has been recorded for N#C[C@@H]1CC(F)(F)CN1C(=O)CNC(=O)c1ccnc2c(OCCCNC(=O)CN3CCN(CCNC(=O)CN4CCN(CC(=O)O)CCN(CC(=O)O)CCN(CC(=O)O)CC4)CC3)cccc12 ?
Response: 8.89

Prompt: Recorded pIC50 for N#C[C@@H]1CC(F)(F)CN1C(=O)CNC(=O)c1ccnc2c(OCCCNC(=O)CN3CCC(NC(=O)CN4CCN(CC(=O)O)CCN(CC(=O)O)CCN(CC(=O)O)CC4)CC3)cccc12 , please?
Response: 8.62

Prompt: For the compound shown here, CC1(C)C(/C=C/C2=C(Oc3ccc(S(=O)(=O)O)cc3)C(=C/C=C3/N(CCCCCC(=O)NCC(O)CC(=O)NCCCOc4cccc5c(C(=O)NCC(=O)N6CC(F)(F)C[C@H]6C#N)ccnc45)c4ccc(S(=O)(=O)O)cc4C3(C)C)/CCC2)=[N+](CCCCS(=O)(=O)[O-])c2ccc(S(=O)(=O)O)cc21 (stereo partly shown) , give the reported pIC50.
Response: 8.43

Prompt: Recorded pIC50 for N#C[C@@H]1CC(F)(F)CN1C(=O)CNC(=O)c1ccnc2c(OCCCNC(=O)CCC(C(=O)O)N3CCN(CC(=O)O)CCN(CC(=O)O)CCN(CC(=O)O)CC3)cccc12 (stereo partly shown) , please?
Response: 8.96

Prompt: Any idea what pIC50 was measured for CN1/C(=C/C=C/C=C/C2=[N+](CCCCCC(=O)NCCCOc3cccc4c(C(=O)NCC(=O)N5CC(F)(F)C[C@H]5C#N)ccnc34)c3ccc(S(=O)(=O)[O-])cc3C2(C)C)C(C)(C)c2cc(S(=O)(=O)O)ccc21 ?
Response: 8.60

Prompt: Report pIC50 for CC1(C)C(/C=C/C2=C(Oc3ccc(S(=O)(=O)O)cc3)C(=C/C=C3/N(CCCCCC(=O)NCCCOc4cccc5c(C(=O)NCC(=O)N6CC(F)(F)C[C@H]6C#N)ccnc45)c4ccc(S(=O)(=O)O)cc4C3(C)C)/CCC2)=[N+](CCCCS(=O)(=O)[O-])c2ccc(S(=O)(=O)O)cc21 please.
Response: 8.30

Prompt: For the compound shown here, CC1(C)C(=CC=C2CCCC(C=CC3=[N+](CCCCS(=O)(=O)[O-])c4ccc(S(=O)(=O)O)cc4C3(C)C)=C2Oc2ccc(S(=O)(=O)O)cc2)N(CCCCCC(=O)NCC(O)CC(=O)NCC(O)CC(=O)NCCCOc2cccc3c(C(=O)NCC(=O)N4CC(F)(F)C[C@H]4C#N)ccnc23)c2ccc(S(=O)(=O)O)cc21 (stereo partly shown) , give the reported pIC50.
Response: 8.53
